These measurements were taken from patent USRE31071E.

# System: mice
# assay-protocol: rotating rod test (ataxic activity)
# Format: in vivo
# reported-conditions: quotient of ataxic to anxiolytic activity, orally, should be as large as possible
# Experimental: Furthermore, there is given in this table the ataxic activity. The ratio of ataxic activity to the anxiolytic activity is of the greatest significance in using a material as an anxiolytic agent. This quotient should be as large as possible since an ataxic activity is undesirable. Ataxic activity means that the coordination of the muscular movements is disturbed--ataxicdisturbance of the muscular coordination. […] The ataxic effect was measured on mice on the pattern of the rotating rod. […]
assay-metric: ED50 Rotating Rod / ED50 Card. Shock

Completed entries (count: 2):
| compound | target-system | ED50 Rotating Rod / ED50 Card. Shock |
| --- | --- | --- |
| O=C1Nc2ccc(Cl)nc2C(c2ccccc2Cl)=NC1O (stereo not drawn) | mice | 15.0 |
| CN1C(=O)CN=C(c2ccccc2)c2nc(Cl)ccc21 | mice | 6.2 |

// query Can you look up ED50 Rotating Rod / ED50 Card. Shock on mice for `CN1C(=O)CN=C(c2ccccc2F)c2nc(Cl)ccc21` ?
// result 6.1

// query Can you look up ED50 Rotating Rod / ED50 Card. Shock on mice for `CN1C(=S)CN=C(c2ccccc2Cl)c2nc(Cl)ccc21` ?
// result 12.5

// query Can you look up ED50 Rotating Rod / ED50 Card. Shock on mice for CC(=O)OC1N=C(c2ccccc2Cl)c2nc(Cl)ccc2N(C(C)=O)C1=O (stereo not drawn) ?
// result 6.7

###

# System: mice
# assay-protocol: rotating rod test (ataxic activity)
# Format: in vivo
# reported-conditions: quotient of ataxic to anxiolytic activity, orally, should be as large as possible
Strictly below 8 in ED50 Rotating Rod / ED50 Card. Shock: True. Otherwise: False.

| molecule | assigned-category |
| --- | --- |
| O=C1CN=C(c2ccccc2F)c2nc(Cl)ccc2N1 [Example 10] | False |

Turning now to a further record.
// query Take the molecule CC1N=C(c2ccccc2)c2nc(Cl)ccc2NC1=O (racemic) [Example 4] and say whether its ED50 Rotating Rod / ED50 Card. Shock is less than 8.
// result True

###

# System: mice
# assay-protocol: rotating rod test (ataxic activity)
# Format: in vivo
# reported-conditions: quotient of ataxic to anxiolytic activity, orally, should be as large as possible
Strictly below 10 in ED50 Rotating Rod / ED50 Card. Shock: TRUE. Otherwise: FALSE.

Consider the following illustrative entries.
| compound | assigned-category |
| --- | --- |
| O=C(O)CCC(=O)OC1N=C(c2ccccc2Cl)c2nc(Cl)ccc2NC1=O (centres unmarked) | FALSE |
| O=C1CN=C(c2ccccc2)c2nc(Cl)ccc2N1CC1CC1 | TRUE |
| O=C1CN=C(c2ccccc2Cl)c2nc(Cl)ccc2N1 | FALSE |

// query Take the compound `C=CCN1C(=O)CN=C(c2ccccc2)c2nc(Cl)ccc21` and say whether its ED50 Rotating Rod / ED50 Card. Shock is less than 10.
// result TRUE
